Experiment Notes: Inhibition of ACAT2 (unknown origin)
Quantity Measured: pIC50
The read-out pIC50 is expressed as -log10 of concentration in moles per litre.

So what does the record say about pIC50 for COc1ccc([C@@H]2O[C@H](c3ccc(OC(C)C(O)c4ccc5c(c4)COC5)c(OC)c3)[C@H](C)[C@@H]2C)cc1OC (stereo partly specified) ? 3.91
